# Tested on: Human RSV-A (“Long” strain)
# method: RSV-A assay: inhibition of cytopathic effect in Hep-2 cells, ATPlite readout
# Format: cell-based, Human respiratory syncytial virus (HRSV)
# measurement.conditions: human respiratory syncytial virus, 120 h; Hep-2 cells, MOI 0.1, 5-day incubation, ATPlite; read-out: Human RSV-A (“Long” strain) EC50
pEC50: −log10 of the molar value.
value.kind: pEC50

stdin: Quick one: pEC50 of O=C1Nc2ccccc2C(c2ccccc2)=N[C@@H]1Nc1nnc(-c2ncc(C(F)(F)F)cc2N2CCOCC2)o1 [Example 253] ?
stdout: > 6.40

stdin: Quick one: pEC50 of O=C1Nc2ccccc2C(c2ccccc2)=NC1Nc1nnc(-c2ncc(C(F)(F)F)cc2N2CCOCC2)o1 (centres unmarked) [Example 139] ?
stdout: > 6.40
